System: Francisella tularensis
Assay: microbe, parasite or virus in culture
Type: cell-based
Details: read-out: MIC range
Readout: MIC

The recorded MIC for CC(=N)NCC[C@@H]1CCC[C@@H](c2ccc(-n3cc4cc(-c5cc(CCC[C@H](C)N)cc(Cl)c5F)[nH]c4nc3=O)cc2C)N1 [RX-D8] is 0.004 to 0.12 µg/mL

The recorded MIC for CC(=N)NCC[C@@H]1CCC[C@@H](c2ccc(-n3cc4cc(-c5cc(CCC[C@H](C)N)cc(Cl)c5F)[nH]c4nc3=O)cc2)N1CCCO [RX-D2] is 0.015 to 1 µg/mL

The recorded MIC for C[C@H](N)CCCc1cc(Cl)c(F)c(-c2cc3cn(-c4ccc([C@@H]5CCC[C@@H](CCSC(=N)N)N5)c(F)c4)c(=O)nc3[nH]2)c1 [RX-D11] is 0.008 to 1 µg/mL

The recorded MIC for C[C@H](N)CCCc1cc(Cl)c(F)c(-c2cc3cn(-c4ccc([C@@H]5CCC[C@@H](CCSC(=N)N)N5)cc4)c(=O)nc3[nH]2)c1 [RX-D4] is 0.004 to 0.5 µg/mL

The recorded MIC for CSc1cc(-n2cc3cc(-c4cc(CCC[C@@H](N)C5CC5)cc(Cl)c4F)[nH]c3nc2=O)ccc1[C@@H]1CCC[C@@H](CCNC(C)=N)N1 [RX-D1] is 0.06 to 0.5 µg/mL

The recorded MIC for C[C@H](N)CCCc1cc(Cl)c(F)c(-c2cc3cn(-c4ccc([C@@H]5CCC[C@@H](CCNC(=N)CN)N5)cc4)c(=O)nc3[nH]2)c1 [RX-D6] is 0.03 to 0.5 µg/mL

* * *

Listing: MIC of selected compounds
Tested on: Francisella tularensis
Assay: microbe, parasite or virus in culture
Assay type: cell-based
Conditions: read-out: MIC range

Example entries and their recorded answers appear below.
Cpd Smiles: C[C@H](N)CCCc1cc(Cl)c(F)c(-c2cc3cn(-c4ccc([C@H]5CC[C@H](CCNC(=N)N)N5)cc4)c(=O)nc3[nH]2)c1
Tested Target: Francisella tularensis
MIC: 0.004 to 0.12 µg/mL

Cpd Smiles: CC(=N)NCC[C@@H]1CCC[C@@H](c2ccc(-n3cc4cc(-c5cc(CCC[C@H](C)N)cc(Cl)c5F)[nH]c4nc3=O)cc2)N1CCCF
Tested Target: Francisella tularensis
MIC: 0.015 to 2 µg/mL

Cpd Smiles: C=CCN1[C@H](CCNC(C)=N)CCC[C@H]1c1ccc(-n2cc3cc(-c4cc(CCC[C@H](C)N)cc(Cl)c4F)[nH]c3nc2=O)cc1
Tested Target: Francisella tularensis
MIC: 0.03 to 2 µg/mL

Cpd Smiles: CCCN1[C@H](CCNC(C)=N)CCC[C@H]1c1ccc(-n2cc3cc(-c4cc(CCC[C@H](C)N)cc(Cl)c4F)[nH]c3nc2=O)cc1
Tested Target: Francisella tularensis
MIC: 0.004 to 1 µg/mL

Cpd Smiles: CC(=N)NCC[C@@H]1CSC[C@@H](c2ccc(-n3cc4cc(-c5cc(CCC[C@H](C)N)cc(Cl)c5F)[nH]c4nc3=O)cc2)N1
Tested Target: Francisella tularensis
MIC: 0.03 to 2 µg/mL

GET /values?item= `C=C[C@H](N)CCCc1cc(Cl)c(F)c(-c2cc3cn(-c4ccc([C@@H]5CCC[C@@H](CCNC(C)=N)N5)c(SC)c4)c(=O)nc3[nH]2)c1` &system= Francisella tularensis returns MIC: 0.06 to 0.5 µg/mL

* * *

Tested on: Burkholderia pseudomallei
Assay: microbe, parasite or virus in culture
Type: cell-based
Details: Burkholderia pseudomallei, read-out: MIC range
Readout: MIC

Compound: C[C@H](N)CCCc1cc(Cl)c(F)c(-c2cc3cn(-c4ccc([C@@H]5CCC[C@@H](CCSC(=N)N)N5)cc4)c(=O)nc3[nH]2)c1 [RX-D4]
Assay Value: 0.25 to 8 µg/mL

The recorded MIC for C[C@H](N)CCCc1cc(Cl)c(F)c(-c2cc3cn(-c4ccc([C@@H]5CCC[C@@H](CCSC(=N)N)N5)c(F)c4)c(=O)nc3[nH]2)c1 [RX-D11] is 0.25 to 8 µg/mL

The recorded MIC for C=CCN1[C@H](CCNC(C)=N)CCC[C@H]1c1ccc(-n2cc3cc(-c4cc(CCC[C@H](C)N)cc(Cl)c4F)[nH]c3nc2=O)cc1 [RX-D10] is 0.25 to 8 µg/mL

* * *

Test system: Burkholderia pseudomallei
Experiment: microbe, parasite or virus in culture
Assay type: cell-based
Settings: Burkholderia pseudomallei
Listing: MIC90 of selected molecules
Use µg/mL as the unit, but write only the number.

Molecule: CCCN1[C@H](CCNC(C)=N)CCC[C@H]1c1ccc(-n2cc3cc(-c4cc(CCC[C@H](C)N)cc(Cl)c4F)[nH]c3nc2=O)cc1
Unit Info: µg/mL
Assay Value: 8
--
Molecule: CC(=N)NCC[C@@H]1CCC[C@@H](c2ccc(-n3cc4cc(-c5cc(CCC[C@H](C)N)cc(Cl)c5F)[nH]c4nc3=O)cc2)N1CCCF
Unit Info: µg/mL
Assay Value: 4
--
Molecule: C[C@H](N)CCCc1cc(Cl)c(F)c(-c2cc3cn(-c4ccc([C@@H]5CCC[C@@H](CCSC(=N)N)N5)c(F)c4)c(=O)nc3[nH]2)c1
Unit Info: µg/mL
Assay Value: 2
--
Molecule: CC(C)(O/N=C(\C(=O)N[C@@H]1C(=O)N2C(C(=O)[O-])=C(C[n+]3ccccc3)CS[C@H]12)c1csc(N)n1)C(=O)O [Ceftazidime, ceftazidime, reference compound]
Unit Info: µg/mL
Assay Value: 1
--
Molecule: CSc1cc(-n2cc3cc(-c4cc(CCC[C@@H](N)C5CC5)cc(Cl)c4F)[nH]c3nc2=O)ccc1[C@@H]1CCC[C@@H](CCNC(C)=N)N1 [RX-D1]
Unit Info: µg/mL
Assay Value: 4
--
Molecule: C[C@H](N)CCCc1cc(Cl)c(F)c(-c2cc3cn(-c4ccc([C@H]5CC[C@H](CCNC(=N)N)N5)cc4)c(=O)nc3[nH]2)c1
Unit Info: µg/mL
Assay Value: 4

The recorded MIC90 for `C=CCN1[C@H](CCNC(C)=N)CCC[C@H]1c1ccc(-n2cc3cc(-c4cc(CCC[C@H](C)N)cc(Cl)c4F)[nH]c3nc2=O)cc1` is 4

The recorded MIC90 for `C=C[C@H](N)CCCc1cc(Cl)c(F)c(-c2cc3cn(-c4ccc([C@@H]5CCC[C@@H](CCNC(C)=N)N5)c(SC)c4)c(=O)nc3[nH]2)c1` is 8

The recorded MIC90 for `C[C@H](N)CCCc1cc(Cl)c(F)c(-c2cc3cn(-c4ccc([C@@H]5CCC[C@@H](CCSC(=N)N)N5)cc4)c(=O)nc3[nH]2)c1` is 4

The recorded MIC90 for `CC(=N)NCC[C@@H]1CSC[C@@H](c2ccc(-n3cc4cc(-c5cc(CCC[C@H](C)N)cc(Cl)c5F)[nH]c4nc3=O)cc2)N1` is 4

* * *

System: Burkholderia mallei
Assay: microbe, parasite or virus in culture
Assay type: cell-based
Listing: MIC90 of selected compounds
Use µg/mL as the unit, but write only the number.

Example entries and their recorded answers appear below.
Compound: CC(=N)NCC[C@@H]1CCC[C@@H](c2ccc(-n3cc4cc(-c5cc(CCC[C@H](C)N)cc(Cl)c5F)[nH]c4nc3=O)cc2C)N1
MIC90, µg/mL: 0.12

Compound: CC(=N)NCC[C@@H]1CSC[C@@H](c2ccc(-n3cc4cc(-c5cc(CCC[C@H](C)N)cc(Cl)c5F)[nH]c4nc3=O)cc2)N1
MIC90, µg/mL: 0.25

Compound: CC[C@H]1OC(=O)[C@H](C)[C@@H](O[C@H]2C[C@@](C)(OC)[C@@H](O)[C@H](C)O2)[C@H](C)[C@@H](O[C@@H]2O[C@H](C)C[C@H](N(C)C)[C@H]2O)[C@](C)(O)C[C@@H](C)CN(C)[C@H](C)[C@@H](O)[C@]1(C)O [Azithromycin, azithromycin, reference compound]
MIC90, µg/mL: 1

Compound: C=CCN1[C@H](CCNC(C)=N)CCC[C@H]1c1ccc(-n2cc3cc(-c4cc(CCC[C@H](C)N)cc(Cl)c4F)[nH]c3nc2=O)cc1
MIC90, µg/mL: 0.25

Compound: C[C@H](N)CCCc1cc(Cl)c(F)c(-c2cc3cn(-c4ccc([C@@H]5CCC[C@@H](CCSC(=N)N)N5)c(F)c4)c(=O)nc3[nH]2)c1
MIC90, µg/mL: 0.12

GET /values?item= `C[C@H](N)CCCc1cc(Cl)c(F)c(-c2cc3cn(-c4ccc([C@H]5CC[C@H](CCNC(=N)N)N5)cc4)c(=O)nc3[nH]2)c1` &system= Burkholderia mallei returns MIC90: 0.12

GET /values?item= `C[C@H](N)CCCc1cc(Cl)c(F)c(-c2cc3cn(-c4ccc([C@@H]5CCC[C@@H](CCSC(=N)N)N5)cc4)c(=O)nc3[nH]2)c1` &system= Burkholderia mallei returns MIC90: 0.12
